assay: Single-dose pharmacokinetic study, artemether sublingual spray vs oral tablets; format: in vivo, human; settings: male, human, plasma, 30 mg, T2: single sublingual 30 mg Artemether sublingual spray, 3 mg per actuation; n = 16; mean ± SD; read-out: t1/2 elimination half-life, Plasma Artemether (converted)

# chemical.smiles, half-life / h
records = [
    ("CO[C@H]1O[C@@H]2O[C@@]3(C)CC[C@H]4[C@H](C)CC[C@@H]([C@H]1C)[C@@]24OO3", 1.39),
]

---

Assay: Single-dose pharmacokinetic study, artemether sublingual spray vs oral tablets
Assay type: in vivo, human
Conditions: male, human, plasma, 15 mg, T1: single sublingual 15 mg Artemether sublingual spray, 3 mg per actuation; n = 16; mean ± SD
Method: Trials were carried out on healthy male adult human volunteers (16 subjects per cohort), and subject to normal ethical approval. […] Following administration of each dosage regime, blood samples were taken from the subjects, and plasma concentrations of artemether and its immediate metabolite dihydroartemesinin were determined, in order to compare bioavailability by the two routes.
readout.type: Cmax (ng/mL)

# compound, readout.type, experimental.result
records = [
    ("CO[C@H]1O[C@@H]2O[C@@]3(C)CC[C@H]4[C@H](C)CC[C@@H]([C@H]1C)[C@@]24OO3 [Artemether]", "Cmax", 16.1),
]
